RECORDED_ENDPOINT: melting point

Exam item: For O=C(O)CCCc1cc2nc(Cl)ccc2n1S(=O)(=O)c1ccccc1OC(F)(F)F , what is its reported melting point?
Marked response: 138 °C

Exam item: For Fc1ccccc1NC(=S)N1CCN(c2cnccn2)CC1 , what is its reported melting point?
Marked response: 151 to 153 °C

Exam item: For CC(C)(C)OC(=O)n1c(C#N)ccc1-c1ccc2c(c1)C(C)(C)OC(=O)N2 , what is its reported melting point?
Marked response: 165 to 167 °C

Exam item: For CCOCCOC(=O)C1=C(C)NC(C#N)=C(C(=O)OCC)C1c1cccc([N+](=O)[O-])c1 (stereo not given) , what is its reported melting point?
Marked response: 89 to 91 °C

Exam item: For O=C(C=Cc1ccc(C(F)(F)F)cc1)N1CCc2c([nH]c3ccccc23)C1c1ccc2c(c1)OCO2 (stereo not given) , what is its reported melting point?
Marked response: 233 °C
